system: PPARg:RXRa (NR concentration 180 nM, RXRa partner concentration 90 nM); test: PBM binding z-score (relative to random genomic background probes); higher = stronger binding; sequences stand for … in GC…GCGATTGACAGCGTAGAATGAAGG
Field: class. Source value: PBM binding z-score. Ranges: bucket 1 = under 0.8, bucket 2 = from 0.8 up to 3, bucket 3 = 3 and over

[
  {
    "Sequence Text": "AGAATGATGTTACCAAAGATCAGGGAAACGCTTG",
    "Cat": "bucket 1"
  }
]

Categorize the following entry: CCTCGGCGGACAGAAGGTCAGAGCTGTCCGCTTT
bucket 1

Categorize the following entry: GCGACTGGGGCATCAGCAGGTTTCCATAACTTAA
bucket 1

Categorize the following entry: CGAACGAGGGCATGAGATGATAGCAAATGCCGAT
bucket 2

Categorize the following entry: TCTGCTAGGTCAAAGATGGTCAGCTAATCTGCTA
bucket 3

Categorize the following entry: TCATATAGGGAAATGCTAGGTGAAAGTCCGATCT
bucket 1

----------
tested on: LXRb:RXRa (NR concentration 270 nM, RXRa partner concentration 90 nM); assay: PBM binding z-score (relative to random genomic background probes); higher = stronger binding; sequences stand for … in GC…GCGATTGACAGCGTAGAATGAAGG
Kindly supply the reported PBM binding z-score values for the records listed here.
Give bare numbers.

Some entries whose results are on file:
[
  {
    "Sequence Text": "AGAATGAAGTTATACGTAGATCAGGGAAGAAAGT",
    "Target": "LXRb:RXRa (NR concentration 270 nM, RXRa partner concentration 90 nM)",
    "PBM binding z-score": -0.59
  },
  {
    "Sequence Text": "CCTAGCTGGTCAGGAGGTCACACACCGGATATGA",
    "Target": "LXRb:RXRa (NR concentration 270 nM, RXRa partner concentration 90 nM)",
    "PBM binding z-score": 3.21
  },
  {
    "Sequence Text": "ATCGAAAGGTCGAAGGGGAGTATACCCACCCGAA",
    "Target": "LXRb:RXRa (NR concentration 270 nM, RXRa partner concentration 90 nM)",
    "PBM binding z-score": 2.7
  },
  {
    "Sequence Text": "TCTGCTAGGTCAGTTGGTCAGCTTACGAGCTGCC",
    "Target": "LXRb:RXRa (NR concentration 270 nM, RXRa partner concentration 90 nM)",
    "PBM binding z-score": 0.14
  },
  {
    "Sequence Text": "GCAGACAGGTGAAAAGCAGGTAACTCAGGGTGGC",
    "Target": "LXRb:RXRa (NR concentration 270 nM, RXRa partner concentration 90 nM)",
    "PBM binding z-score": -0.319
  },
  {
    "Sequence Text": "CAAACTAGGTCACAGAGGTGAAAGTCCGTGCGTA",
    "Target": "LXRb:RXRa (NR concentration 270 nM, RXRa partner concentration 90 nM)",
    "PBM binding z-score": 3.33
  },
  {
    "Sequence Text": "CCTGCTGGGCCATCAGGTCATTGATATCAACGTT",
    "Target": "LXRb:RXRa (NR concentration 270 nM, RXRa partner concentration 90 nM)",
    "PBM binding z-score": 1.18
  },
  {
    "Sequence Text": "TCGAGTAGGTTAGTCGGGACATTCAGCCAACATA",
    "Target": "LXRb:RXRa (NR concentration 270 nM, RXRa partner concentration 90 nM)",
    "PBM binding z-score": -0.141
  },
  {
    "Sequence Text": "TAGCCTAGGTCAGACCGGGCCAGTATACGCTATA",
    "Target": "LXRb:RXRa (NR concentration 270 nM, RXRa partner concentration 90 nM)",
    "PBM binding z-score": 0.609
  },
  {
    "Sequence Text": "TCAATTAGTTGAAGGGCAACCGACGAGTCCGTTT",
    "Target": "LXRb:RXRa (NR concentration 270 nM, RXRa partner concentration 90 nM)",
    "PBM binding z-score": 0.456
  }
]

Items follow; give PBM binding z-score for each.
1. GCTTACGGGTCAAAGGCTATAGCATGAATAGAAT
2. TCTAGTTGGTCAAAGGTCACACAGTCGAAATGCG
3. TCTATTAGTTGAGGGGCAACCGACGAGTCCGTTT
4. CGAAATAGGTCAAGGACAGTGAATCTCCGCACGC

1. 3.82
2. 5.36
3. 1.41
4. 3

Items follow; give PBM binding z-score for each.
1. TCTAGTTGGTCACGGAGATCACACACGACGGGTA
2. AGACCGAGGGCACGCTGAGTTGATAGCAGAGTAG

[0.575, 0.0788]

Items follow; give PBM binding z-score for each.
1. GCTTGTAGATCAAGGTTATGAAAGACTAAGCTAA
2. GCATATAGGTTATACAAGGTGAAAGTCCGATTGT

1. 0.452
2. 3.08

Items follow; give PBM binding z-score for each.
1. TATACAGGGTCAAAGGACAGAGTACGAATGTCGA
2. TAGCCTGGGTCATTCAGGGGCCAGTATAGAAAGC
3. ACTATTAGGTGAGACGAGGGCAACCGATAGGTTG
4. CAAACTAGGTCACAGAGGTCATAGTCCGTGCGTA

1. 4.85
2. 2.04
3. 0.202
4. 5.6

Items follow; give PBM binding z-score for each.
1. TGTCACAGTTCAAAGGTAACGTAAGTATCCACAC
2. GGAACGAGGGCAAAGTTGAGAGCATCTGTCGACG
3. AGTCAAAGTTCAGGACGAGGTAAGGTAAAGCACG
4. TCTAGTTGGTCACGGAGTTCACACACGACGGGTA
5. TCATATATGTAAACAGGTGAAAGTCCGTAAGTTA
6. TGAATGATGTTATAAGATCAGGGAACGTTGCAAA
7. TCTAGCTGGCCAGAGGGTCACTCAAGAGGTACGG

2.87
1.03
1.95
1.88
1.51
-0.083
1.05

Items follow; give PBM binding z-score for each.
1. TCTATTAGTTGATTAGGGCAACCGGAACAGCGGA
2. GCATTTAGGTAATACAAGGTGAAAGTCCGATTGT
3. ATCTCTAGGTAAAAGTTCAGTGATTCCCGAGGAT

0.539
0.493
0.613

Items follow; give PBM binding z-score for each.
1. CGTCCAAGGTGAAAGGTCAGTGAAGAGATGACGG
2. TAGCCTAGGTCATTGGGCCAGTATGGTACGCATC
3. ACTAGTTGGTCAGCTGACGTCACACACAATTCGG
4. CCGACTGGGGCAAGGTTACCATAACGCACAGCCA
5. TCTTGTAGATCAACAGAAGGTTAAGAAAGATCGA
6. CCTACTGGGCCAAGAAAGGTCATTGATTCAGTGA
7. TCGAGTAGGTTACCTATGGGGCATTCAGCTTTCT

1: 3.61; 2: 2.07; 3: 0.522; 4: 0.835; 5: 0.953; 6: 3.8; 7: 0.927

Items follow; give PBM binding z-score for each.
1. CCGTCTGGGGCAAGGTTACCATAACGCACAGCCA
2. CCTTACGGGTCACTGACAGGTTATAGAATTTGGA

[0.486, 3.45]

----------
system: VDR homodimer (NR concentration 270 nM); test: PBM binding z-score (relative to random genomic background probes); higher = stronger binding; sequences stand for … in GC…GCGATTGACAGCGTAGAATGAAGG
Kindly supply the reported PBM binding z-score values for the records listed here.
Numbers only.

Some entries whose results are on file:
[
  {
    "Sequence Text": "ATCGAAAGGTGGTGAGGTGAGTATACAGAAAGGC",
    "Target": "VDR homodimer (NR concentration 270 nM)",
    "PBM binding z-score": 0.366
  },
  {
    "Sequence Text": "ATATGTAGGTTTCATCCGGGTCATTCAGGCTATG",
    "Target": "VDR homodimer (NR concentration 270 nM)",
    "PBM binding z-score": 3.21
  }
]

Items follow; give PBM binding z-score for each.
1. GCGACTGGGGCATTAGCAGGTTACCATAACTTAA
2. TCTGCTTGGTCAGTTGGTCAGCTAACGAGCTGCC
3. TCTTGTAGATCAACAGGAGGCTAAGAAAGATCGA
4. CAAACTAGGTCACCGGAACGTCAAAGTCCGCATG
5. CTGCCAAGGTGAACAAGGTCGTTGATTACTATTC

1: -0.236; 2: -1.2; 3: -0.893; 4: 1.08; 5: 1.56
